Tested on: OVCAR-3
Test: NCI one-dose SRB growth inhibition
Type: cell-based
Conditions: Homo sapiens, OVCAR-3, 48 h, Ovarian Cancer, read-out: GI% OVCAR-3
Experimental: The antitumor assay was performed according to the protocol of the Drug Evaluation Branch, NCI, Bethesda[24–26]. A 48 h drug exposure protocol was adopted, and sulforhodamine B (SRB) assay[27] was utilized to assess the cell growth and viability, as reported earlier[17]^,[28]. The structures of all the newly synthesized pyridines 5a–l were submitted to the National Cancer Institute (NCI) Developmental Therapeutic Program (www.dtp.nci.nih.gov). […]
Measured endpoint: inhibition at 10 µM

Field: example entries. Status: answers known.
Compound: Cc1nc(-c2cccs2)ccc1NC(=O)Nc1ccc(Cl)cc1 [Compound 5i]
Tested on: OVCAR-3
inhibition at 10 µM: < 10%
--
Compound: Cc1nc(-c2ccc(Cl)cc2)ccc1NC(=O)Nc1cccc(C(F)(F)F)c1 [Compound 5e]
Tested on: OVCAR-3
inhibition at 10 µM: < 10%
--
Compound: COc1ccc(NC(=O)Nc2ccc(-c3ccc(Cl)cc3)nc2C)cc1 [Compound 5f]
Tested on: OVCAR-3
inhibition at 10 µM: < 10%
--
Compound: CCOC(=O)c1ccc(NC(=O)Nc2ccc(-c3ccc(F)cc3)nc2C)cc1 [Compound 5c]
Tested on: OVCAR-3
inhibition at 10 µM: < 10%
--
Compound: Cc1nc(-c2cccs2)ccc1NC(=O)Nc1ccc(F)cc1 [Compound 5h]
Tested on: OVCAR-3
inhibition at 10 µM: < 10%

Look up inhibition at 10 µM for this compound: Cc1nc(-c2ccc(Cl)cc2)ccc1NC(=O)Nc1ccc2c(c1)OCO2 [Compound 5g]
< 10%

For CCOC(=O)c1ccc(NC(=O)Nc2ccc(-c3cccs3)nc2C)cc1 [Compound 5j] , what is its reported inhibition at 10 µM?
< 10%

What measured inhibition at 10 µM goes with Cc1nc(-c2ccc(F)cc2)ccc1NC(=O)Nc1cccc(C(F)(F)F)c1 [Compound 5a] ?
> 40%

What inhibition at 10 µM value was documented for this compound, Cc1nc(-c2ccc(F)cc2)ccc1NC(=O)Nc1ccc2c(c1)OCO2 [Compound 5d] ?
< 10%
